# Test system: P388 leukemia ip, CD2F1 mice, survival T/C
# method.notes: NCI In Vivo Anticancer Drug Screen. Data for tumor model P388 Leukemia (intraperitoneal) in CD2F1 (CDF1) mice
# condition.notes: endpoint: median survival time; dose: 120.0 mg/kg/injection; schedule: Q01DX005 (ip); vehicle: Klucel (hydroxypropylcellulose) (HPC); higher = longer survival
Inconclusive results and toxic doses are left out.
observable: T/C

[[record]]
compound = "CCOC(=O)CC1(O)Oc2cc3c(cc2C(c2cc(OC)c(OC)c(OC)c2)C1C(=O)OCC)OCO3 (stereo unspecified)"
system = "P388 leukemia ip, CD2F1 mice, survival T/C"
observable = "T/C"
measured_result = "89 % of control"

[[record]]
compound = "CC(=O)CCC1=C(O)C(C)=C(C)C(=O)C1=O"
system = "P388 leukemia ip, CD2F1 mice, survival T/C"
observable = "T/C"
measured_result = "115 % of control"

[[record]]
compound = "Nc1nc(Cc2ccccc2)cc(-c2cc(Cc3ccccc3)nc(N)n2)n1"
system = "P388 leukemia ip, CD2F1 mice, survival T/C"
observable = "T/C"
measured_result = "95 % of control"

[[record]]
compound = "COC(=O)N1CC2[C@H](O)[C@H](O)C1ON2c1ccccc1 (stereo partly specified)"
system = "P388 leukemia ip, CD2F1 mice, survival T/C"
observable = "T/C"
measured_result = "94 % of control"


The recorded T/C for entry CC1(C)CC(=O)C(C(c2ccc3c(c2)OCO3)N2CCOCC2)C(=O)C1 (stereo unspecified) equals 109 % of control

Consider O=C1c2ccccc2C(=O)C1NOCCCCl . Its measured T/C is 99 % of control

# compound Cc1ccc(-n2cnc3sc4c(c3c2=O)CCCC4)cc1 ; its T/C = 89 % of control

For C[CH2][Sn]([CH2]C)([N]=C=S)[N]=C=S.c1ccc2nc(-c3ccc4ccccc4n3)ccc2c1 the compound record lists T/C as 96 % of control

---

# System: P388 leukemia ip, CD2F1 mice, survival T/C
# method.notes: NCI In Vivo Anticancer Drug Screen. Data for tumor model P388 Leukemia (intraperitoneal) in CD2F1 (CDF1) mice
# condition.notes: endpoint: median survival time; dose: 12.5 mg/kg/injection; schedule: Q01DX009 (ip); vehicle: Klucel (hydroxypropylcellulose) (HPC); higher = longer survival
Inconclusive results and toxic doses are left out.
T/C reference

[[record]]
compound = "Cc1c2cccc(F)c2c[n+]2ccccc12"
measured_result = "103 % of control"


Bench note, P388 leukemia ip, CD2F1 mice, survival T/C: CC1=C2C(=CO[C@H](C)[C@H]2C)C(=O)C(C(=O)O)=C1O , T/C reads 120 % of control

Record for CCCCC#CCOCC(O)CCl (centres undefined) under target or system P388 leukemia ip, CD2F1 mice, survival T/C: T/C reported as 100 % of control

# T/C measured on P388 leukemia ip, CD2F1 mice, survival T/C for item Oc1ccc(/C=N/NC(=S)NN2CCOCC2)nc1 = 104 % of control

---

# Tested on: P388 leukemia ip, CD2F1 mice, survival T/C
# method.notes: NCI In Vivo Anticancer Drug Screen. Data for tumor model P388 Leukemia (intraperitoneal) in CD2F1 (CDF1) mice
# condition.notes: endpoint: median survival time; dose: 120.0 mg/kg/injection; schedule: Q01DX005 (ip); vehicle: saline with Tween-80; higher = longer survival
# Procedure: The antitumor activity of compounds was measured in mice bearing transplantable tumors. Survival or tumor size were measured and the results are expressed as the measurement made in the treated group (T) divided by the measurement made in the vehicle treated control group (C). The tumor model used in this assay is P388 Leukemia (intraperitoneal) in CD2F1 (CDF1) mice
Inconclusive results and toxic doses are left out.
observable: T/C

Record excerpt, results attached:
[[record]]
compound = "CC(=O)c1ccc(N/N=[N+](/C)[O-])cc1"
system = "P388 leukemia ip, CD2F1 mice, survival T/C"
measured_result = "101 % of control"

[[record]]
compound = "Cc1ccccc1OCC1COCN(C(C)(C)C)CO1 (configuration not stated)"
system = "P388 leukemia ip, CD2F1 mice, survival T/C"
measured_result = "107 % of control"


Record CSCc1cc(CO)no1 , field T/C: 99 % of control

Recorded result, CCOC(=O)C(CC(C)C)NC(=O)c1cnc2ccccc2c1 (configuration not stated) , T/C: 103 % of control
